System: HT-29
testDescription: NCI tumour cell line growth inhibition, 48 h
Activity calls are given as the source filed them. Cut-off read from the data, not from the text of the source: active = GI50 up to about 1.1 µM and inactive = higher.
Lab note: assign the record to one of y for active, n for inactive

Illustrative cases are given below, each with its answer.
| molecule | classification |
| --- | --- |
| COc1cc2c(oc(=O)c3c4occc4cc(OC)c23)c2cccc(OCc3ccccc3)c12 | n |
| CC(=O)OCC1OC(n2c(C)c(C(C)=O)c(-c3ccc(Cl)cc3)c(C#N)c2=S)C(OC(C)=O)C(OC(C)=O)C1OC(C)=O (stereo unspecified) | n |

What is the recorded call for this molecule in the test? COc1ccc(C(=O)c2ccc(-n3cc(/C=C/[N+](=O)[O-])c4ccccc43)cc2)cc1 n

What is the recorded call for this molecule in the test? CCC(C)NC(=S)N/N=C(\C)c1nc2cccnc2[nH]1 (stereo unspecified) n

What is the recorded call for this molecule in the test? C=C(C)[C@@H]1CC[C@]2(C(=O)O)CC[C@]3(C)[C@H](CC[C@@H]4[C@@]5(C)CC[C@H](C(=O)/C=C/c6ccc(O)cc6)C(C)(C)[C@@H]5CC[C@]43C)[C@@H]12 n

What is the recorded call for this molecule in the test? N#CCCNCCN(CCN(C(=O)Nc1ccccc1)c1ccccc1)C(=O)Nc1ccccc1 n

What is the recorded call for this molecule in the test? Cc1sc2nc3n(c(=O)c2c1C)N=C(c1ccc(Cl)cc1)CS3 n

What is the recorded call for this molecule in the test? O=C(c1cc2ccccc2[nH]1)N1C2CCC1CN(CCOC(c1ccc(F)cc1)c1ccc(F)cc1)CC2 (stereo unspecified) n

What is the recorded call for this molecule in the test? O=C(O)C1(Cc2ccc3c(c2)CCC3)Cc2ccccc2C1=O (stereo unspecified) n

What is the recorded call for this molecule in the test? Cc1ccc(S(=O)(=O)SCc2ccccc2)cc1 n

====

System: SR
testDescription: NCI tumour cell line growth inhibition, 48 h
Calls of active or inactive are those of the source. No stated cut-off is given here; in the data, active = GI50 up to about 1.1 µM and inactive = higher.
Lab note: assign the record to one of Y (active), N (inactive)

Illustrative cases are given below, each with its answer.
| compound | classification |
| --- | --- |
| CCOc1cc2c[n+](C)c3c4cc(OC)c(OC)cc4ccc3c2cc1OC | N |
| CC(NC(C#N)CC12CC3CC(CC(C3)C1)C2)c1ccccc1 (stereo not given) | N |
| CC(=O)C1=C(C)Cn2c(=O)c3ccccc3c(=O)n2C1 | N |
| COc1ccccc1NC(=O)CC(=O)NNCC(=O)Nc1nnc(-c2ccccc2)o1 | N |
| C=C(CN(C)C)C(=O)c1cc(C)ccc1C | Y |
| COc1ccc(/C=C2\CCC(CNc3ccc(S(N)(=O)=O)cc3)C2=O)cc1 (stereo not given) | N |
| CCOC(=O)c1c2c(n(-c3ccc(C)cc3)c1C)-c1ccccc1C(=O)C2(C(=O)OCC)C(=O)OCC | N |
| COc1ccc(NC(C)=O)cc1N1C(=O)/C(=C\c2cccc(Oc3ccccc3)c2)S(=O)(=O)C1c1ccccc1 (stereo not given) | N |
| Oc1c(Br)cc(Br)cc1CN(Cc1cc(Br)cc(Br)c1O)C1CCCCC1 | N |
| Cc1cc(=O)oc2c(C)c3oc(CBr)c(Br)c3cc12 | N |

What is the recorded call for this compound in the test? Cc1ccc(O)c(-c2cc(-c3cccc(Br)c3)on2)c1 N

What is the recorded call for this compound in the test? CCCSc1ccc2[nH]c(/N=C/c3ccco3)cc2c1 N

What is the recorded call for this compound in the test? CSc1c(C#N)c(O)nc(N)c1C(=O)Nc1ccc(C)cc1 N

What is the recorded call for this compound in the test? COC(=O)NN(C(=O)OC)c1c(-c2ccccc2)nc(SC)n1N N

What is the recorded call for this compound in the test? Cc1ccc([N+](=O)[O-])c2c(NCC(O)CO)ccnc12 (stereo not given) N

What is the recorded call for this compound in the test? Cn1cc(C(=O)NCCC(=N)N)cc1NC(=O)C1=[N+](C)C=C(NC(=O)c2cccc(C(=O)NC3=CC(C(=O)Nc4cc(C(=O)NCCC(=N)N)cn4C)=[N+](C)C3)c2)C1 N

What is the recorded call for this compound in the test? Clc1ccc(Cl)c(Nc2ccnc(SCc3ccccc3)n2)c1 N

What is the recorded call for this compound in the test? COc1cc2c(/C=C3/C(=O)Nc4ccccc43)c(Cl)[nH]c2cc1C Y

What is the recorded call for this compound in the test? Cc1cc(C)c(N)c(C)c1N N

What is the recorded call for this compound in the test? N#CCC1C2CC3C(C2=O)C13 (stereo not given) N

What is the recorded call for this compound in the test? Cc1ccc(C)c(NC(=O)CCc2nnc(S)[nH]2)c1 N

What is the recorded call for this compound in the test? O=S(=O)(Nc1nc2ccccc2nc1N1CCCCCC1)c1ccccc1 N

What is the recorded call for this compound in the test? CSc1nc(-c2ccccc2)nc(N2CCOCC2)[s+]1 N

What is the recorded call for this compound in the test? O=C(O)CCC(NC(=O)c1ccc(Nc2cnc3ccc(C(F)(F)F)cc3n2)cc1)C(=O)O (stereo not given) N

What is the recorded call for this compound in the test? N#CCCNCCN(CCN(C(=O)Nc1ccccc1)c1ccccc1)C(=O)Nc1ccccc1 N

What is the recorded call for this compound in the test? Cc1cc(NCCCCCCCNc2cc(C)nc3cc(N)ccc23)c2ccc(N)cc2n1 N

What is the recorded call for this compound in the test? Oc1ccccc1/C=N/N1C(=S)N(c2ccccc2)C(=N\c2ccccc2)/C1=N/c1ccccc1 N

====

Test system: NCI/ADR-RES
testDescription: NCI tumour cell line growth inhibition, 48 h
Activity calls are given as the source filed them. No stated cut-off is given here; in the data, active = GI50 up to about 1.1 µM and inactive = higher.
measuredProperty: GI50

With NCI/ADR-RES as the test system, C=CCn1c(=O)c(C)cn(COCCO)c1=O showed GI50 of > 100 µM (inactive)

With NCI/ADR-RES as the test system, C=C(C)[C@@H]1CC[C@]2(C(=O)O)CC[C@]3(C)[C@H](CC[C@@H]4[C@@]5(C)CC[C@H](C(=O)/C=C/c6ccc(O)cc6)C(C)(C)[C@@H]5CC[C@]43C)[C@@H]12 showed GI50 of 3.22 µM (inactive)

====

Tested on: SK-MEL-28
testDescription: NCI tumour cell line growth inhibition, 48 h
The source made the active and inactive calls. Cut-off read from the data, not from the text of the source: active = GI50 up to about 1.1 µM and inactive = higher.
Lab note: assign the record to one of t (active), f (inactive)

Illustrative cases are given below, each with its answer.
| compound | classification |
| --- | --- |
| c1ccc2c(c1)n1nnnc1c1nnnn21 | f |
| N#C/C(=C\c1c[nH]c2ccccc12)C(=O)c1ccc(O)c(O)c1 | f |
| COc1ccc2c(c1)c1cc(OC)ccc1n2CCCCOc1ccc(-c2c3ccccc3c(-c3ccc(OCCCCn4c5ccc(OC)cc5c5cc(OC)ccc54)cc3)c3ccccc23)cc1 | f |
| O=C(NC/C=C/Br)NC1CCNc2ccccc21 (stereo not given) | f |
| CC(C)=CCC[C@@H](C)C1=C(O)C(O)C(C)=C2N=C(c3ccccc3)C(=O)OC21 (stereo not given in full) | f |
| COc1ccc(-n2c(C)nc3ccc(NC4OCC(OC(C)=O)C(OC(C)=O)C4OC(C)=O)cc3c2=O)cc1 (stereo not given) | f |
| CC(=O)NC1C(OCc2ccccc2)OC(CO)C(O)C1OCC(=O)N[C@@H](C)C(=O)N[C@H](CCC(=O)NCCCNc1c2ccccc2nc2cccc([N+](=O)[O-])c12)C(N)=O (stereo not given in full) | t |
| CCSSCS(C)(=O)=O | f |

What is the recorded call for this compound in the test? N#CC(C#N)/N=N/c1ccc(-c2nc3ccccc3o2)cc1 f

What is the recorded call for this compound in the test? COc1ccc(C(C#N)NNC(=O)Cc2ccccc2)cc1OC (stereo not given) f

What is the recorded call for this compound in the test? O=C(O)Cc1c[nH]c2ccc(F)cc12 f

What is the recorded call for this compound in the test? CCOC(=O)c1nc[nH]c1/N=N/N(C)N f

What is the recorded call for this compound in the test? COc1ccc2c(c1)[n+]([O-])c(-c1ccc(Br)cc1)c(N)[n+]2[O-] f

What is the recorded call for this compound in the test? O=c1c(-c2ccccc2)c(SCCO)n(-c2ccccc2)c(=S)n1-c1ccccc1 f

====

Test system: A498
testDescription: NCI tumour cell line growth inhibition, 48 h
Where a name gives a salt, the structure may show the parent alone. Activity calls are given as the source filed them. Rule as the data show it: active = GI50 up to about 1.1 µM and inactive = higher.
Lab note: assign the record to one of active, inactive

| compound | classification |
| --- | --- |
| Cc1c2cccc-2ccc2c1[nH]c1ccc(Br)cc12 | inactive |
| COc1ccc(NC(=O)COC(=O)c2cccc3c(=O)c4ccccc4[nH]c23)cc1 | inactive |
| COC(=O)C1(C(=O)OC)N=C(C)OC1/C=C/c1ccccc1 (stereo unspecified) | inactive |
| Cn1cc(C(=O)NCCC(=N)N)cc1NC(=O)C1=[N+](C)C=C(NC(=O)c2cccc(C(=O)NC3=CC(C(=O)Nc4cc(C(=O)NCCC(=N)N)cn4C)=[N+](C)C3)c2)C1 | inactive |
| CSC1=C(C)C(/C=N/Nc2ccc([N+](=O)[O-])cc2)=C(C)N(c2ccccc2)S1(=O)=O | inactive |
| Clc1ccc(Cl)c(Nc2ccnc(SCc3ccccc3)n2)c1 | inactive |

What is the recorded call for this compound in the test? CCC(C)C(N)C(=O)N/N=C\c1c2c(nc3ccccc13)-c1cc3c(c(=O)n1C2)COC(=O)[C@]3(O)CC (stereo partly specified) active

What is the recorded call for this compound in the test? Cn1ncc2c(c1=O)Nc1ccccc1S2(=O)=O inactive

What is the recorded call for this compound in the test? O=P1(c2ccccc2)C(c2ccccc2)=CC=C1c1ccccc1 inactive

What is the recorded call for this compound in the test? N#CC(C(=O)CCC(=O)Nc1cccc(Cl)c1)c1ccccc1 (stereo unspecified) inactive

What is the recorded call for this compound in the test? Cc1ccc(S(=O)(=O)n2c3ccc(Br)cc3c3nc4ccccc4nc32)cc1 inactive

What is the recorded call for this compound in the test? NC(=S)N1N=C2c3ccccc3CC[C@H]2[C@@H]1c1ccc(Cl)cc1 inactive

What is the recorded call for this compound in the test? COc1ccc(/C=C2\CCC(CNc3ccc(S(N)(=O)=O)cc3)C2=O)cc1 (stereo unspecified) inactive

What is the recorded call for this compound in the test? CCN(CC)CCNc1ccc(C)c2sc3ccccc3c(=O)c12 [LUCANTHONE HYDROCHLORIDE] inactive

These measurements were taken from ChEMBL document CHEMBL1201862.
